Reference source for all entries: patent US8729078B2

Each record here notes measured IC50.
# TARGET_SYSTEM: Btk (Homo sapiens (Human))
# Sequence (Q06187 whole entry): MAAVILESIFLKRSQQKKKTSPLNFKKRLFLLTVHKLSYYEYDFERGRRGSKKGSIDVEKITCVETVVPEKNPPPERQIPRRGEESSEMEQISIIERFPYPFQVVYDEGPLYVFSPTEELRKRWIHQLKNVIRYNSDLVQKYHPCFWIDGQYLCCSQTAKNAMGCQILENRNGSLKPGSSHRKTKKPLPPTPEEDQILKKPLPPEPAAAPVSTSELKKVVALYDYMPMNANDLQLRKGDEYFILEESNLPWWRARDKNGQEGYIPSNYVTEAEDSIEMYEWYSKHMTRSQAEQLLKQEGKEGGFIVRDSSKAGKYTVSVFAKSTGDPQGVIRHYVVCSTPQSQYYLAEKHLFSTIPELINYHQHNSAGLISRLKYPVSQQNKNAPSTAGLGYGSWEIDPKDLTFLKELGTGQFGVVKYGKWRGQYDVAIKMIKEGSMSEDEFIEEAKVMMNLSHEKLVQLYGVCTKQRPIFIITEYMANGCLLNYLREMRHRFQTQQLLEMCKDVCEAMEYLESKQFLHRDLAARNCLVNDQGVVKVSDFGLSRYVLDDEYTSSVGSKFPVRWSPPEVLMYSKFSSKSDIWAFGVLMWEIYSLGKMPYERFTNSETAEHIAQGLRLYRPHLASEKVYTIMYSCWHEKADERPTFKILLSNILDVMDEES

SMILES_STRUCTURE | IC50
CN(C)CCNc1ccc2c(C(N)=O)cn(-c3cccc(-n4ncc5cc(C(C)(C)C)cc(F)c5c4=O)c3CO)c2n1 | 3560 nM
CC(C)(C)c1cc(F)c2c(=O)n(-c3cccc(-n4ccc(C(N)=O)n4)c3CO)ncc2c1 | 333 nM
CC(C)(C)c1cc(F)c2c(=O)n(-c3cccc(-n4cc(C(N)=O)c5ccc(-c6ccccc6Cl)nc54)c3CO)ncc2c1 | 28.4 nM
Cn1cc(-c2cccc(-n3ncc4cc(C(C)(C)C)cc(CO)c4c3=O)c2CO)cc1C(N)=O | 696 nM
CN1CCn2nc(Nc3nn(-c4cccc(-n5ncc6cc(C(C)(C)C)cc(F)c6c5=O)c4CO)cc3C(N)=O)cc2C1 | 0.09 nM
CC(C)(C)c1cc(F)c2c(=O)n(-c3cccc(-n4cc(C(N)=O)c5ccc(N6CCS(=O)(=O)CC6)nc54)c3CO)ncc2c1 | 12.7 nM
CCOc1ccc(-c2ccc3c(C(N)=O)cn(-c4cccc(-n5ncc6cc(C(C)(C)C)cc(F)c6c5=O)c4CO)c3n2)cn1 | 11 nM
